# TEST_SYSTEM: T1, cyno FcRn/b2M (cyno, UniProt Q8SPV9 24-297; Q8SPW0 21-119, biotinylated)
# T1 construct: bought recombinant biotinylated protein (Immunitrack ITF05 or ACRO FCM-C82W5); also called cFcRn; cFcRn/cb2M
# T1 sequence (Q8SPV9 24-297 limits assumed, chain 1 of 2): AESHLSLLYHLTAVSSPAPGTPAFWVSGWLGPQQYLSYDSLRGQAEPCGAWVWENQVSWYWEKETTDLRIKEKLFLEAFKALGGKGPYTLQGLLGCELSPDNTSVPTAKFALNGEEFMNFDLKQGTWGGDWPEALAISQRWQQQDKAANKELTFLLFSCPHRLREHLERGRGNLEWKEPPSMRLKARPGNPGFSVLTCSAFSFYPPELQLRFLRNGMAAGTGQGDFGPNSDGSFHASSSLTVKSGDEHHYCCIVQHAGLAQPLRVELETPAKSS
# T1 sequence (Q8SPW0 21-119 limits assumed, chain 2 of 2): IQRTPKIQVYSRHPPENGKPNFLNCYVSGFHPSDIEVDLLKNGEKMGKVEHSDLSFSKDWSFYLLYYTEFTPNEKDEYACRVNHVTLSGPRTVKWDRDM
# MEASUREMENT_DESCRIPTION: SPR pH 6.0;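 note: surface plasmon resonance kinetics at 25 °C, diluted periplasmic extracts injected over immobilized ligand surfaces, 120 s association then 600–3600 s dissociation, running buffer containing 150 mM NaCl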
MEASURE_NAME: koff (s⁻¹)

[P] T0263018B11 T28L (VHH, name in Kabat numbering, FLAG3-His6 tagged) VHH: EVQLVESGGGVVQPGGSLRLSCAASGFLFSSYAMYWVRQAPGKGLEWVSAISSGGGSTDYADSVKGRFTISRDNSKNTLYLQMNSLRPEDTALYYCAADTLYTSLTWYSYWGQGTLVTVSS
[Q] T0263018B11 G26Q (VHH, name in Kabat numbering, FLAG3-His6 tagged) VHH: EVQLVESGGGVVQPGGSLRLSCAASQFTFSSYAMYWVRQAPGKGLEWVSAISSGGGSTDYADSVKGRFTISRDNSKNTLYLQMNSLRPEDTALYYCAADTLYTSLTWYSYWGQGTLVTVSS
[R] T0263018B11 Y32F (VHH, name in Kabat numbering, FLAG3-His6 tagged) VHH: EVQLVESGGGVVQPGGSLRLSCAASGFTFSSFAMYWVRQAPGKGLEWVSAISSGGGSTDYADSVKGRFTISRDNSKNTLYLQMNSLRPEDTALYYCAADTLYTSLTWYSYWGQGTLVTVSS
[S] T0263018B11 S101M (VHH, name in Kabat numbering, FLAG3-His6 tagged) VHH: EVQLVESGGGVVQPGGSLRLSCAASGFTFSSYAMYWVRQAPGKGLEWVSAISSGGGSTDYADSVKGRFTISRDNSKNTLYLQMNSLRPEDTALYYCAADTLYTSLTWYMYWGQGTLVTVSS
// rank the listed binders by koff, lowest value first Use the labels to give the ranking in the order requested.
Q, R, S, P
